Assay: NCI Yeast Anticancer Drug Screen. Data for the bub3 strain (AID 167)
Details: S. cerevisiae bub3 mutant strain, at 50.0 µM, active compounds read high
Experimental: Growth inhibition of yeast strains with defined genetic alterations is measured as a screen for potential anti-cancer activity. Selected strains with alterations in DNA damage repair or cell cycle control were exposed to compounds and growth inhibition was measured relative to vehicle treated controls. The strain used in this assay is bub3
This is part of a sample that, as a whole, favours compounds with a hit. Of some 79,000 tested, about 15% had one in any assay. Active and inactive are the calls of the source. No stated cut-off is given here; in the data, active means growth inhibition above about 70%; inactive means the rest.
parameter: growth inhibition

I have this molecule here, CCOC(=O)CC(C(=O)OCC)C(=O)OCC , and I need its recorded growth inhibition.
5.45% (inactive)

Next:
I have this molecule here, O=c1cc([N+](=O)[O-])c2c([nH]1)CCC2 , and I need its recorded growth inhibition.
-6.15% (inactive)

I have this molecule here, COc1cccc(C(=O)NNC(=O)c2cccc(OC)c2)c1 , and I need its recorded growth inhibition.
-1.9% (inactive)

I have this molecule here, Cc1ccnc(NC(=O)Nc2ccc(C)cc2[N+](=O)[O-])c1 , and I need its recorded growth inhibition.
18.1% (inactive)

* * *

test: NCI Yeast Anticancer Drug Screen. Data for the mec2-1 strain (AID 157); conditions: S. cerevisiae mec2-1 strain, at 50.0 µM, active compounds read high
This is part of a sample that, as a whole, favours compounds with a hit. Of some 79,000 tested, about 15% had one in any assay.
growth inhibition for assorted molecules
I only need the number, in %, no unit after it.

I have this molecule here, CCOC(=O)c1c(N)[nH]c(SSc2[nH]c(N)c(C(=O)OCC)c2C(=O)OCC)c1C(=O)OCC , and I need its recorded growth inhibition.
3.85

I have this molecule here, OC1COC(O)(CN2CCOCC2)C(O)C1O (stereo not given) , and I need its recorded growth inhibition.
5.95

I have this molecule here, C[N+](C)(C)CCOC(=O)c1ccccc1CCl , and I need its recorded growth inhibition.
8.35

I have this molecule here, COC1=C2CC(C)CC(OC)C(OC(C)=O)C(C)/C=C(\C)C(OC(N)=O)C(OC)/C=C\C=C(/C)C(=O)NC(=CC1=O)C2=O (stereo not given) , and I need its recorded growth inhibition.
91

I have this molecule here, CCCCCCCCCCCC(=O)OCC1OC(n2cc(F)c(=O)[nH]c2=O)C(NC(=O)OCc2ccccc2)C(O)C1O (stereo not given) , and I need its recorded growth inhibition.
5.85

* * *

Assay: NCI Yeast Anticancer Drug Screen. Data for the sgs1 mgt1 strain (AID 161);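 further: 0% = growth of cultures given vehicle only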
Settings: S. cerevisiae sgs1 mgt1 strain, at 50.0 µM, active compounds read high
Experimental: Growth inhibition of yeast strains with defined genetic alterations is measured as a screen for potential anti-cancer activity. Selected strains with alterations in DNA damage repair or cell cycle control were exposed to compounds and growth inhibition was measured relative to vehicle treated controls. The strain used in this assay is sgs1 mgt1
The panel holds about 79,000 compounds, 15% with a hit somewhere; the sample as a whole holds those more often.
Use TRUE when the recorded growth inhibition is no lower than 10%; use FALSE when it is lower.

Hi team, for Cc1ccc(NC(=NCCCN(C)C)C(c2ccccc2)c2ccccc2)cc1 , is the recorded growth inhibition at or above 10%?
FALSE

Hi team, for Cc1ccc2nc(-c3ccc(-c4nc5ccc(C)cc5o4)c(O)c3)oc2c1 , is the recorded growth inhibition at or above 10%?
FALSE

Hi team, for O=c1[nH][nH]c(=O)c(Cl)c1Cl , is the recorded growth inhibition at or above 10%?
FALSE

Hi team, for O=c1[nH]c2cc([N+](=O)[O-])ccc2nc1/C(=N\Nc1ccccc1)C(O)c1ccc2c(c1)OCO2 (stereo unspecified) , is the recorded growth inhibition at or above 10%?
TRUE

Hi team, for COc1ccc(-c2nc(N)nc3c2CN(CCC(=O)O)C3=O)cc1 , is the recorded growth inhibition at or above 10%?
TRUE

Next:
Hi team, for CC(=O)Oc1cccc2cc3cc(C)cc(OC(C)=O)c3c(OC(C)=O)c12 , is the recorded growth inhibition at or above 10%?
FALSE
